These data points were gathered from paper PMC4323627.

- TARGET_UNDER_TEST: T1, human Shq1 CS domain without 6XHis-tag (hCS) (human, UniProt Q6PI26 1-96, uniformly 15N-labelled)
- T1 sequence (looked up): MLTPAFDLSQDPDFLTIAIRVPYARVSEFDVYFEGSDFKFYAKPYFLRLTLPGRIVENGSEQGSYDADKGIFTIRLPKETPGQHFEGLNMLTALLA
- ASSAY_PROTOCOL: NMR titration
VALUE_TYPE: Kd

Quick one: Kd for LNVRTTHYTPLA [Dys2S peptide (dyskerin residues 62-73)] ?
> 500 µM
